Test system: COLO 205 colon
Experiment: NCI tumour cell line growth inhibition, 48 h
attribute measured: TGI

What value of measured TGI is listed for NS(=O)(=O)c1ccc(N(/C=C/C(=O)C(F)(F)F)CC(=O)c2ccc(Cl)cc2)cc1 ?
> 100 µM

Let us now turn to CCCCCC(/C=C/C1CCC(=O)C1CC#C[Si](C)(C)C)OCc1ccccc1 (stereo unspecified)
39.3 µM

Let us now turn to CCO/C=N/NC(=O)CSc1nc2ccc(I)cc2c(=O)n1Cc1ccccc1
> 100 µM

Let us now turn to CC(C)(C)C(=O)OC(N)/C=C/c1ccccc1 (stereo unspecified)
> 100 µM

Let us now turn to O=C(O)CCN(CCC(=O)O)c1ccc(/C=C2\SC(=S)NC2=O)cc1
> 100 µM

Let us now turn to CSc1nncc2[nH]c(C)nc12
> 100 µM

###

Tested on: KM12 colon
Test: NCI tumour cell line growth inhibition, 48 h
attribute measured: TGI

What value of measured TGI is listed for COc1cccc(/C=N/[N-]C(=O)c2ccncc2)c1[O-].[Cu+2].[OH3+] ?
> 100 µM

Let us now turn to Cc1cc(C)nc(NS(=O)(=O)c2ccc(NNC(=O)c3cccc4c(=O)c5ccccc5[nH]c34)cc2)n1
> 100 µM

Let us now turn to CC(=O)OC12c3ccccc3-c3ccccc3C1C1C(=O)N(C)C(=O)C12Cl (stereo not given)
> 10 µM

Let us now turn to CCCCCCNC(=O)c1nc(-c2ccccc2)oc1Cc1ccc(OP(=O)(O)O)cc1
33.2 µM

Let us now turn to CCOC(=O)c1ccc(NC(=O)O/N=C(/Cl)CCl)cc1
> 100 µM

###

Tested on: SK-OV-3 ovarian
Experiment: NCI tumour cell line growth inhibition, 48 h; in the data active means GI50 below about 0.43 µM; inactive means the rest
Reply using exactly one outcome from active, inactive

Status in this test for CCOC(=O)C(=Cc1cccc(Cl)c1)C(=O)OCC ?
inactive

Let us now turn to CCN(CC)CCOc1ccc(/C=C2\CC3C4CC=C5C[C@@H](O)CC[C@]5(C)C4CC[C@]3(C)C2=O)cc1OC (stereo partly drawn)
inactive

Let us now turn to CCCCCCC[CH2][Sn]1([CH2]CCCCCCC)[O]C(=O)c2cccnc2[S]1
inactive

Let us now turn to CC1(C)OCCn2c1nc1c(N3CCOCC3)nc(-c3cnc(N)nc3)nc12
active

Let us now turn to COc1ccncc1C#Cc1cncc(C(=O)Nc2ccc(CN3CCN(C)CC3)c(C(F)(F)F)c2)c1
inactive

Let us now turn to O=c1[nH]c(=O)n(C2CC(O)C(CO)O2)cc1CO (stereo not drawn)
inactive

Let us now turn to C=Cc1c(C)c2cc3nc(cc4[nH]c(cc5nc(cc1[nH]2)C(C)=C5CCC(=O)O)c(CCC(=O)OC)c4C)[C@@]1(C)C3=CC=C(C(=O)OC)[C@H]1C(=O)OC
inactive

Let us now turn to COc1cc(CNCCCN2C(=O)c3ccc4c5c(ccc(c35)C2=O)C(=O)N(CCCNCc2cc(OC)c(OC)c(OC)c2)C4=O)cc(OC)c1OC
inactive

Let us now turn to CC12CCC3C(CCC4=CC(O)CCC43C=O)C1(O)CCC2c1ccc(=O)oc1 (stereo not drawn)
active

Let us now turn to CCCCCCNC(=O)c1nc(-c2ccccc2)oc1Cc1ccc(OP(=O)(O)O)cc1
inactive

Let us now turn to Nc1nccc2c1ccn2-c1ccc(NC(=O)c2ccc(N3CCOCC3)c(C(F)(F)F)c2)cc1
inactive

Let us now turn to Cc1cn2c(/C=C3\C(=O)Nc4ccc(O)cc43)c(-c3ccc(Cl)cc3)nc2s1
inactive

Let us now turn to O=c1cc2oc3cc(O)c(O)cc3c(-c3ccccc3O)c-2cc1O
inactive

###

Tested on: SF-539 CNS
Assay: NCI tumour cell line growth inhibition, 48 h
Would you mind telling me the reported TGI of each entry?
Give a bare numeral; the unit µM is implied.

Find the measured TGI: item COC1C(O)=C2C(=O)O/C(C)=C/C=C/C=C/C=C\CC(c3ccccc3)NC(=O)\C=C/C=C\C=C\C=C\[C@@]2(C)[C@@H]1O (stereo not given in full) , target or system SF-539 CNS.
0.047

Let us now turn to CCN1CCN=c2c3cc(OC)ccc3n3cnc4ccc1c2c43
0.413

Let us now turn to O=C(NS(=O)(=O)OCC(Cl)(Cl)Cl)SCCC(F)(F)C(F)(F)C(F)(F)C(F)(F)C(F)(F)C(F)(F)F
34.5

Let us now turn to Ic1ccc(-n2nnnc2-c2cnoc2-c2ccccc2)cc1
3.98

###

Would you mind telling me the reported TGI of each entry?
System: DMS 273 small cell lung
Experiment: NCI tumour cell line growth inhibition, 48 h

What value of measured TGI is listed for COc1cc2c(cc1O)C1C(O)C(O)C=C3CCN(C2)C31 (stereo not drawn) ?
8.24 µM

Let us now turn to O=C(Nc1cc(Cl)ccc1Cl)c1cc2cccc(Cl)c2oc1=O
> 100 µM

Let us now turn to CCCCCCC[CH2][Sn]1([CH2]CCCCCCC)[O]C(=O)c2cccnc2[S]1
> 100 µM

Let us now turn to Cc1cccc(C(C)C)c1NC(=O)CC1Sc2ccccc2NC1=O (stereo not drawn)
> 100 µM

Let us now turn to N=c1ccn2c(n1)OC1C(O)C(CO)OC12 (stereo not drawn)
> 364 µM

Let us now turn to CCOc1ccc2c(c1)[n+]([O-])c(-c1ccccc1Cl)c(N)[n+]2[O-]
> 100 µM

Let us now turn to COC(=O)CN(C)P(=O)(N1CC1)N1CC1
> 100 µM

Let us now turn to Cc1ccc(S(=O)(=O)N/N=C/c2oc(-c3ccncc3)c(-c3ccncc3)c2[N+](=O)[O-])cc1
> 100 µM

Let us now turn to COc1cccc(/C=N/[N-]C(=O)c2ccncc2)c1[O-].[Cu+2].[OH3+]
> 100 µM

Let us now turn to COC1[C@@H](OC(C)=O)[C@@H](NC(=O)C(Cl)(Cl)Cl)C(I)[C@@H](N2C(=O)c3ccccc3C2=O)[C@H]1OC (stereo partly drawn)
> 100 µM

Let us now turn to CC1=C2CCCC2=C/C(=N/Nc2ccc([N+](=O)[O-])cc2[N+](=O)[O-])CC1
> 100 µM

Let us now turn to CC#C[P+](c1ccccc1)(c1ccccc1)c1ccccc1
10.6 µM

Let us now turn to CCOC(=O)C(C)(C)Oc1ccc2c(C)c(-c3ccc(Cl)cc3)c(=O)oc2c1
> 100 µM

###

Test system: SN12C renal
Assay: NCI tumour cell line growth inhibition, 48 h
Would you mind telling me the reported TGI of each entry?
Give a bare numeral; the unit µM is implied.

What value of measured TGI is listed for C#CCN(CC#C)C(=O)C(=O)c1c[nH]c2ccc(OC)cc12 ?
30

Let us now turn to Cc1cn2c(/C=C3\C(=O)Nc4ccc(O)cc43)c(-c3ccc(Cl)cc3)nc2s1
25.5

Let us now turn to O=C(c1cc(Cl)cc(Cl)c1)N1CCN(C(=O)c2cc(Cl)cc(Cl)c2)C1=S
31.1

###

Test system: M14 melanoma
Assay: NCI tumour cell line growth inhibition, 48 h; in the data active means GI50 below about 0.43 µM; inactive means the rest
Reply using exactly one outcome from active, inactive

Status in this test for CC1(C)OCCn2c1nc1c(N3CCOCC3)nc(-c3cnc(N)nc3)nc12 ?
active

Let us now turn to Nc1c(C(=O)Nc2cccc(Br)c2)sc2nc3c(cc12)C(=O)CCC3
inactive

Let us now turn to O=c1cc2oc3cc(O)c(O)cc3c(-c3ccccc3O)c-2cc1O
inactive

Let us now turn to Cc1cn2c(/C=C3\C(=O)Nc4ccc(O)cc43)c(-c3ccc(Cl)cc3)nc2s1
inactive

Let us now turn to Ic1ccc(-n2nnnc2-c2cnoc2-c2ccccc2)cc1
inactive

Let us now turn to CCOc1ccc2nc(S/C(=C/C=C(C#N)C#N)c3ccc(C)cc3)sc2c1
inactive

Let us now turn to C=CC(=O)N1CCC(C2CCNc3c(C(N)=O)c(-c4ccc(Oc5ccccc5)cc4)nn32)CC1 (stereo not drawn)
inactive

Let us now turn to COc1ccccc1N1CCN(CCCn2c(=O)c3c(OC)nc(C)cc3c(=O)n2-c2ccccc2)CC1
inactive

Let us now turn to COc1ccc(-c2oc(=O)ccc2-c2cc(OC)c(OC)c(OC)c2)cc1F
inactive

Let us now turn to Cc1ccc(Cl)cc1Nc1nc(C(F)(F)F)ccc1C(=O)N1CCN(c2cccc(Cl)c2)CC1
inactive

Let us now turn to Nc1nccc2c1ccn2-c1ccc(NC(=O)c2ccc(N3CCOCC3)c(C(F)(F)F)c2)cc1
inactive

Let us now turn to Cc1nc2cnc(N)c(C#Cc3cncc(C(=O)Nc4ccc(CN5CCN(C)CC5)c(C(F)(F)F)c4)c3)c2nc1C
active

Let us now turn to COc1cc(CNCCCN2C(=O)c3ccc4c5c(ccc(c35)C2=O)C(=O)N(CCCNCc2cc(OC)c(OC)c(OC)c2)C4=O)cc(OC)c1OC
inactive
